These data points were gathered from ChEMBL document CHEMBL4627378.

- ASSAY NAME: Drug concentration in brain of rat at 10 mg/kg, po
- Assay type: ADME, organism-based
- STATED CONDITIONS: in vivo, read-out: Ct
VALUE TYPE: concentration (nM)
A number alone suffices; assume nM.

Fill in the blank: the reported concentration of "O=C(NC1CN(C2CN(C(=O)c3ccc(-c4cccc(C(F)(F)F)c4)cc3)C2)C1)c1nccs1" is ____.
670

concentration lookup needed for "O=C(c1cc2cc(-c3ccccc3)ccc2s1)N1CC(N2CC(N3Cc4ccccc4C3=O)C2)C1" , thanks.
1200

Recorded concentration of "O=C(NC1CN(C2CN(C(=O)c3sc4cc(C(F)(F)F)ccc4c3Cl)C2)C1)c1nccs1" , please.
350

Query (compound): "O=C(NC1CN(C2CN(C(=O)c3ccc4nc(-c5ccccc5)oc4c3)C2)C1)c1nccs1" ; field requested: concentration
840
